testTarget: PTHR1 receptor
Sequence (P25961 whole entry): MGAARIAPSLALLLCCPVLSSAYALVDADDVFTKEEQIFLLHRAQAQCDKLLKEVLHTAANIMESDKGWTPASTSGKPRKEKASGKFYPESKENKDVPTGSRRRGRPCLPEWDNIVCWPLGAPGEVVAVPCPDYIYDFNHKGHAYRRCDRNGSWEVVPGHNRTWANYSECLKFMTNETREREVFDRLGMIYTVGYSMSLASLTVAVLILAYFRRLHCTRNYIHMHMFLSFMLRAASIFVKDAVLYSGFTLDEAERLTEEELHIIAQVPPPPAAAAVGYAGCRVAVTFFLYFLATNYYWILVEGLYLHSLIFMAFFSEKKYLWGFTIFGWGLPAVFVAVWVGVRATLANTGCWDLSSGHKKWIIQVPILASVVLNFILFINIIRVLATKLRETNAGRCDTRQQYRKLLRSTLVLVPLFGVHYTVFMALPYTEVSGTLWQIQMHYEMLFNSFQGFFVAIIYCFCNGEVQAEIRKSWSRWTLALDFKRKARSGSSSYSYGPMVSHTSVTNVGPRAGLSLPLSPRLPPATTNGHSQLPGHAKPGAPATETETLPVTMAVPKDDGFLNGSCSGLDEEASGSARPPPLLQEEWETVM
* marks the point of attachment. Palmitoyl = CCCCCCCCCCCCCCCC(=O)*
assayMetric: Fold Shift of EC50 (fold)
Numbers only; they are read as fold.

- Palmitoyl-SGRVLATKLRET-NH2 (SMILES CCCCCCCCCCCCCCCC(=O)N[C@@H](CO)C(=O)NCC(=O)N[C@@H](CCCNC(=N)N)C(=O)N[C@H](C(=O)N[C@@H](CC(C)C)C(=O)N[C@@H](C)C(=O)N[C@H](C(=O)N[C@@H](CCCCN)C(=O)N[C@@H](CC(C)C)C(=O)N[C@@H](CCCNC(=N)N)C(=O)N[C@@H](CCC(=O)O)C(=O)N[C@H](C(N)=O)[C@@H](C)O)[C@@H](C)O)C(C)C) [Compound 72]: 0.7

get_value(item= Palmitoyl-TNAGRSDTRQQYRKLA-NH2 (SMILES CCCCCCCCCCCCCCCC(=O)N[C@H](C(=O)N[C@@H](CC(N)=O)C(=O)N[C@@H](C)C(=O)NCC(=O)N[C@@H](CCCNC(=N)N)C(=O)N[C@@H](CO)C(=O)N[C@@H](CC(=O)O)C(=O)N[C@H](C(=O)N[C@@H](CCCNC(=N)N)C(=O)N[C@@H](CCC(N)=O)C(=O)N[C@@H](CCC(N)=O)C(=O)N[C@@H](Cc1ccc(O)cc1)C(=O)N[C@@H](CCCNC(=N)N)C(=O)N[C@@H](CCCCN)C(=O)N[C@@H](CC(C)C)C(=O)N[C@@H](C)C(N)=O)[C@@H](C)O)[C@@H](C)O) [Compound 88] , readout=Fold Shift of EC50) returns 2.8
